TARGET_ENTITY: DRB1*0813 (DRA*0101/DRB1*0813) (Homo sapiens, UniProt P01903+P01911, A100R/A103L/A169T/F76Y/H45Y/I96L/K41T/L162R/M171V/P40S/Q125H/Q178H/Q39Y/Q99D/R218S/R42G/S66Y/V115G/W38E)
Construct: DRA*01011-181LZFos; DRB1*08131-190LZJunBSP; made in house
ASSAY_TEXT: Direct LOCI peptide-MHC-II binding assay, DRB1*0813
CONDITION_NOTES: pH 6-7.5; 48 h 18°C; read-out: DRB1*0813 affinity
Where no end group is shown, it is not given here.
RECORDED_ENDPOINT: pKd
Hey, just a heads up that pKd is the negative log base 10 of the concentration in molar.

Reported pKd, sequence YKYVKQNTLKLAT [HA306-318] : ____
7.96

Reported pKd, sequence YILFLVKMNALRRLPV : ____
7.11

Reported pKd, sequence RMIAISAKV [Pox.o42.con.im. A2] : ____
6.57

The values you see were collected from paper PMC2690590.
